FYI, the data here is from patent US20220056137A1.

Readings of pKd for the listed binders
Molecular target: T1, human PD-L1 protein (soluble) (human, UniProt Q9NZQ7 19-239)
T1 construct: also called PD-L1 (R&D Systems); His-tagged PD-L1 protein
T1 sequence (Q9NZQ7 19-239 limits assumed): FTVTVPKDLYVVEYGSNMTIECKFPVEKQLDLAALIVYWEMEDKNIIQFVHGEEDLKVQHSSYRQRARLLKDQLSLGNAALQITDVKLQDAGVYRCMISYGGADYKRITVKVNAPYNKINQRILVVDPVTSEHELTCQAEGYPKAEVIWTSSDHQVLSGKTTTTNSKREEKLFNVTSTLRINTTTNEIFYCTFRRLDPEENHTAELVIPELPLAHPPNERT
Experiment: SPR, mAb captured on anti-human IgG Fc, PD-L1 as analyte
pKd: −log10 of the molar value.
measure: pKd

{"binder": "antibody A20 (antibody, V domains shown, Tested as full-length mAb made in CHO cells; also called L20H20) VH: QVQLQESGPGLVKPSETLSLTCTVSGGSISSYYWSWIRQPPGKGLEWIGYIYYSGSTNYNPSLKSRVTISVDTSKNQFSLKLSSVTAADTAVYYCARDDRIAVGPYYYYYGMDVWGQGTTVTVSS VL: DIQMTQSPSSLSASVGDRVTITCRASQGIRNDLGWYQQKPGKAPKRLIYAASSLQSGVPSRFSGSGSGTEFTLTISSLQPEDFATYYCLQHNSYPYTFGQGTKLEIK", "value_measured": 6.17}
{"binder": "antibody A1 (antibody, V domains shown, Tested as full-length mAb made in CHO cells; also called L1H1) VH: QVQLVQSGAEVKKPGASVKVSCKASGFTFTSYDINWVRQATGQGLEWMGWMHPNSGITGYAQKFQGRVTMTRNTSISTAYMELSSLSSEDTAVYFCARYYYVSGSYDYWGQGTLVTVSS VL: EIVMTQSPATLSLSPGERATLSCWASQSVSSSYLSWYQQKPGQAPRLLIYGASTRATGIPARFSGSGSGTDFTLTISSLQPEDFAVYYCQQDYNLPYTFGQGTKLEIK", "value_measured": 9.89}
{"binder": "antibody A15 (antibody, V domains shown, Tested as full-length mAb made in CHO cells; also called L15H15) VH: QLQLQESGPGLVKPSETLSLTCTVSGGSFNRSNYYWGWIRQPPGKGLEWIGSIYYSGSTYYNPSLKSRLTISADTSKTQFSLKRNSVTAADTAVYYCAREDIVVVPAAQPPHFYFGMDVWGQGTTVTVSS VL: DIQMTQSPSSLSASVGDRVTITCRASQGIRNDLGWYQQKPGKAPKRLIYAASSLQSGVPSRFSGSGSGTEFTLTISSLQPEDFATYYCLQHDSYPLTFGGGTKVEIK", "value_measured": 6.64}
